Source of measurements: patent US6310095A

- TEST_TARGET: protein farnesyltransferase (Rattus norvegicus, UniProt Q02293+Q04631)
- Construct: Rat brain protein farnesyltransferase activity is measured; from tissue; host or cells: rat brain; purified according to Reiss et al., Cell 62:81-88 (1990), steps one through three
- ASSAY_OVERVIEW: in vitro inhibition of protein farnesyltransferase (scintillation proximity assay, biotin-K Ras B fragment)
- Type: biochemical
- CONDITIONS: at 1 × 10^-6 M
Reported % inhibition of farnesyltransferase values follow for various compounds
// return numeric value only (unit: %, not printed)

// below: answered compounds
compound=CCCCON(CCC1CCCCC1)Cc1ccc(C(=O)N[C@@H](CCS(C)(=O)=O)C(=O)O)c(-c2ccccc2C)c1 assay_result=43
compound=CSCC[C@H](NC(=O)c1ccc(COCC(CC2CCCCC2)CC2CCCCC2)cc1-c1ccccc1C)C(=O)O assay_result=95
compound=CCOC[C@H](CC1CCCCC1)OCc1ccc(C(=O)N[C@@H](CCSC)C(=O)O)c(-c2ccccc2C)c1 assay_result=99
compound=CSCC[C@H](NC(=O)c1ccc(S(=O)(=O)NCCN2CCOCC2)cc1-c1ccccc1C)C(=O)O assay_result=32
compound=CSCC[C@H](NC(=O)c1ccc(CCCCC2CCCCC2)cc1-c1ccccc1C)C(=O)O assay_result=98

Q. Would you mind telling me what % inhibition of farnesyltransferase value was observed for Cc1ccccc1-c1cc(CN(C2CC2)C2(Cc3ccccc3)CCCC2)ccc1C(=O)N[C@@H](CCS(C)(=O)=O)C(=O)O ?
A. 91

Q. Would you mind telling me what % inhibition of farnesyltransferase value was observed for Cc1ccccc1-c1cc(CN(C)C(C)(C)Cc2ccccc2)ccc1C(=O)N[C@@H](CCS(C)(=O)=O)C(=O)O ?
A. 94

Q. Would you mind telling me what % inhibition of farnesyltransferase value was observed for Cc1ccccc1-c1cc(CCc2cccc(Oc3ccccc3)c2)ccc1C(=O)N[C@@H](CC[S+](C)[O-])C(=O)O (stereo partly drawn) ?
A. 88
